Source of measurements: patent US20110294843A1

- assay_details: Pharmacokinetics of M6G at single and multiple intravenous doses in healthy volunteers
- Assay type: in vivo, human
- cond: both sexes, human, plasma, iv, 30 mg/70 kg, single 5 min iv infusion 30 mg; Geometric Mean; read-out: MRT0-∞
measured_parameter: MRT inf (h)
Express the result in h but write the number alone.

Give MRT inf for CN1CC[C@]23c4c5ccc(O)c4O[C@H]2[C@@H](OC2OC(C(=O)O)C(O)C(O)C2O)C=CC3[C@H]1C5 (stereo partly shown)
1.76

====

- assay_details: Pharmacokinetics of M6G at single and multiple intravenous doses in healthy volunteers
- Assay type: in vivo, human
- cond: both sexes, human, plasma, intravenous, 15 mg/70 kg, multiple dose, Dose 1-15 mg; Median; read-out: MRT0-∞
measured_parameter: MRT inf (h)
Express the result in h but write the number alone.

Give MRT inf for CN1CC[C@]23c4c5ccc(O)c4O[C@H]2[C@@H](OC2OC(C(=O)O)C(O)C(O)C2O)C=CC3[C@H]1C5 (stereo partly shown)
2.17

====

- assay_details: Pharmacokinetics of M6G at single and multiple intravenous doses in healthy volunteers
- Format: in vivo, human
- cond: both sexes, human, plasma, intravenous, 15 mg/70 kg, multiple dose, Dose 1-15 mg; Median; read-out: Vss
measured_parameter: Vd
Please give the number followed by its unit.

Give Vd for CN1CC[C@]23c4c5ccc(O)c4O[C@H]2[C@@H](OC2OC(C(=O)O)C(O)C(O)C2O)C=CC3[C@H]1C5 (stereo partly shown)
14.2 L

====

- assay_details: Pharmacokinetics of M6G at single and multiple intravenous doses in healthy volunteers
- Assay type: in vivo, human
- cond: both sexes, human, plasma, iv, 45 mg/70 kg, single 5 min iv infusion 45 mg; Geometric Mean; read-out: MRT0-∞
- Procedure: Healthy male and female subjects were divided into two groups (A and B) with 12 in each. Group A received three single intravenous infusions of M6G over 5 mins at levels of 15, 30 and 45 mg/70 kg in random order, having taken 50 mg of naloxone orally 24 hrs beforehand. […] Vital signs (supine blood pressure, pulse, respiratory rate and oral temperature), respiration rate, pulse oximetry and adverse events were monitored during the study. Plasma levels of M6G were measured using HPLC/ms/ms.
measured_parameter: MRT inf (h)
Express the result in h but write the number alone.

Give MRT inf for CN1CC[C@]23c4c5ccc(O)c4O[C@H]2[C@@H](OC2OC(C(=O)O)C(O)C(O)C2O)C=CC3[C@H]1C5 (stereo partly shown)
1.66

====

- assay_details: Pharmacokinetics of M6G at single and multiple intravenous doses in healthy volunteers
- Type: in vivo, human
- cond: both sexes, human, plasma, iv, 45 mg/70 kg, single 5 min iv infusion 45 mg; Median; read-out: Vss
measured_parameter: Vd (L)
Express the result in L but write the number alone.

Give Vd for CN1CC[C@]23c4c5ccc(O)c4O[C@H]2[C@@H](OC2OC(C(=O)O)C(O)C(O)C2O)C=CC3[C@H]1C5 (stereo partly shown)
13.1

====

- assay_details: Pharmacokinetics of M6G at single and multiple intravenous doses in healthy volunteers
- Assay type: in vivo, human
- cond: both sexes, human, plasma, intravenous, 15 mg/70 kg, multiple dose, Dose 1-15 mg; Mean; read-out: Vss
measured_parameter: Vd (L)
Express the result in L but write the number alone.

Give Vd for CN1CC[C@]23c4c5ccc(O)c4O[C@H]2[C@@H](OC2OC(C(=O)O)C(O)C(O)C2O)C=CC3[C@H]1C5 (stereo partly shown)
14.8
